Experiment: plasma exposure after oral administration
Assay type: in vivo, male CD-1 mice
Details: male, CD-1, mouse; Plasma, single oral dose 50 mg/kg
Protocol: Plasma concentrations were measured in mice after oral administration. All doses were formulated in purified water. Four groups of male CD-1 mice were dosed after an overnight fast and fed 4 hours post-dose. Dosing was as follows: Protein was precipitated with 0.25 mL acetonitrile for plasma, 0.25 mL for brain. After centrifugation, supernatant was directly injected into an LC/MS system. The limit of quantitation was 1 ng/mL using a 50 μL aliquot for plasma and a 50 μL, aliquot for brain. […]
Measurement type: AUC(0-t)

>  <Structure string>
O=C(Cc1ccc(-c2ccc(OCCN3CCOCC3)cc2)cn1)NCc1ccccc1

>  <Value observed>
10800 ng·h/mL

$$$$

Where these numbers come from: patent US10196357B2
